Biological target: T1, Human VSIG4-L-His (human, UniProt Q9Y279 20-283)
T1 construct: long isoform ECD with His tag; also called hVSIG4-L
T1 sequence: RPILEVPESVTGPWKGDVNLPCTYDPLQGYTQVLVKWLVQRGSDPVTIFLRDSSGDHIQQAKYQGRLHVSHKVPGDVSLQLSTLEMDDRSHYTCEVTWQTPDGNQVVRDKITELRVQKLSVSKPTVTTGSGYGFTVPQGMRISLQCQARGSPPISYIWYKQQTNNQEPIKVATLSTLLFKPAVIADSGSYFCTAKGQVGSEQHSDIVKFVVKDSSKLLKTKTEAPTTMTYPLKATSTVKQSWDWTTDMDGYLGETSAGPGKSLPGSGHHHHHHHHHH
Assay: SPR (FJB)
MEASURED PROPERTY: Kd (nM)
Lab book: enter the figure in nM, no units written.

Quick check: Kd of 15C03 mouse/human chimeric IgG4 (S228P) kappa (antibody, V domains shown) VH: EVKLLESGPGLVKPSQSLSLTCTVTGYSITSDYAWNWIRQFPGNKLEWMGYISYSGSTRYNPSLKSRISITRDTSNNQFFLQLNSVTTEDTATYYCARSGYAAMDYWGQGTSVTVSS VL: ENVLTQSPAIMSASPGEKVTMTCRASSSVSSSYLHWYQQKSGASPKLWIYSTSNLASGVPARFSGSGSGTSYSLTISSVEAEDAATYYCQQYSGYPLTFGSGTKLEIKR ?
17.9

Given the entry 14D12 mouse/human chimeric IgG4 (S228P) kappa (antibody, V domains shown) VH: QIQLVQSGPELKKPGETVKISCKASGYTFTNYGMNWVKQTPGKGLKWMGLINTYTGEPTYADDFKGRFAFSLETSASTAYLQINNLKNEDMATYFCARERIYGYLHYFDYWGQGTTLTVSS VL: DVVMTQTPASLAVSLGQRATISCKASQSVDYDGDSYMNWYQQKPGQPPKLLIYAASNLESGIPARFSGSGSGTDFTLNIHPVEEEDAATYYCQQSNEDPRTFGGGTKLEIKR , report its measured Kd.
10.5

Could you tell me which Kd is on file for 15A06 mouse/human chimeric IgG4 (S228P) kappa (antibody, V domains shown) VH: QVQMKQSGPSLVRPSQTLSLTCSVTGDSITSGYWNWIRKFPGDKFEYLGYISYSGFTYYNPSLKSRVSITRDTSKNQYYLQLHSVTTEDTATYYCASSKYGSSLGFPYWGQGTLVTVSA VL: DVVMTQTPLSLPVSLGDQASISCRSSQSLVHSNGNTYLHWYLQKPGQSPKLLIYKVSNRFSGVPDRFSGSGSGTDFTLKISRVEAEDLGVYFCSQSTHVPFTFGSGTKLEIKR ?
15

// lookup Kd for 15C04 mouse/human chimeric IgG4 (S228P) kappa (antibody, V domains shown) VH: QIQLQESGPSLVRPSQTLSLTCSVTGDSITSGYWNWIRKFPGDKLEYLGYISYSGFTYYNPSLKSRISITRDTSKNQYYLQLNSVTTEDTATYYCASSYYGSSLGFPYWGQGTLVTVSA VL: DVVMTQTPLSLPVSLGDQASISCRSSQSLVHSNGNTYLHWYLQKPGQSPKLLIYKVSNRFSGVPDRFSGSGSGTDFTLKISRVEAEDLGVYFCSQSTHVPWTFGGGTKLEIKR
5.4

The origin of these recorded values is patent US20230348603A1.
